The values you see were collected from patent US20040106545A1.

Quick reference: Percent Inhibition of Angiogenesis of the listed items.
- Tested on: chick embryonic chorioallantoic membranes
- experimental protocol: Chick chorioallantoic membrane angiogenesis assay
- Type: in vivo
- particulars: 3 μg/mesh, absence (−) of 0.01 mM VEGF, 24 hours
Positions of bridges follow the written chain, without caps; N, C: chain ends. Residues, ends and D or L forms follow the SMILES beside them.
quantity name: Percent Inhibition of Angiogenesis

INSERT INTO measurements (compound, quantity_name, observed_measurement) VALUES
  ('CC(=O)N[C@H]1CSSC[C@@H](C(N)=O)NC(=O)[C@H](Cc2c[nH]cn2)NC(=O)[C@H](C)NC(=O)[C@H](C(C)C)NC1=O [N—Ac—CVAHC—NH2] (Ac-CVAHC-NH2; disulfide 1-5)', 'Percent Inhibition of Angiogenesis', '−1%^'),
  ('CC[C@H](C)[C@@H]1NC(=O)[C@H](CC(=O)O)NC(=O)[C@H](C(C)C)NC(=O)[C@H](C)NC(=O)[C@H](Cc2c[nH]cn2)NC(=O)[C@H](C)NC(=O)[C@@H](NC(C)=O)CSSC[C@@H](C(N)=O)NC1=O (Ac-CAHAVDIC-NH2; disulfide 1-8)', 'Percent Inhibition of Angiogenesis', '−1%^'),
  ('CC(=O)N[C@H]1CSSC[C@@H](C(N)=O)NC(=O)[C@H](C(C)C)NC(=O)[C@H](C)NC(=O)[C@H](Cc2c[nH]cn2)NC1=O [N—Ac—CHAVC—NH2, N-Ac-Cys-His-Ala-Val-Cys-NH2]', 'Percent Inhibition of Angiogenesis', '12%'),
  ('CC(=O)N[C@H]1CSSC[C@@H](C(N)=O)NC(=O)[C@H](CC(=O)O)NC(=O)[C@H](C(C)C)NC(=O)[C@H](C)NC(=O)[C@H](Cc2c[nH]cn2)NC(=O)[C@H](C)NC1=O [N—Ac—CAHAVDC—NH2, N-Ac-Cys-Ala-His-Ala-Val-Asp-Cys-NH2] (Ac-CAHAVDC-NH2; disulfide 1-7)', 'Percent Inhibition of Angiogenesis', '21%');

---

# pIC50 per entry
- Test system: MDA-MB231
- Type: cell-based, human
- particulars: 3 h
- From the text: […]
pIC50: −log10 of the molar value. Positions of bridges follow the written chain, without caps; N, C: chain ends. Residues, ends and D or L forms follow the SMILES beside them.
quantity name: pIC50

INSERT INTO results (compound, quantity_name, observed_measurement) VALUES
  ('CC(=O)N[C@H]1CSSC[C@@H](C(N)=O)NC(=O)[C@H](CO)NC(=O)[C@H](C(C)C)NC(=O)[C@H](C)NC(=O)[C@H](Cc2c[nH]cn2)NC1=O [N—Ac—CHAVSC—NH2, N-Ac-Cys-His-Ala-Val-Ser-Cys-NH2] (Ac-CHAVSC-NH2; disulfide 1-6 (inferred))', 'pIC50', 4.28),
  ('CC(=O)N[C@H]1CSSC[C@@H](C(N)=O)NC(=O)[C@H](CC(=O)O)NC(=O)[C@H](C(C)C)NC(=O)CNC(=O)[C@H](Cc2c[nH]cn2)NC(=O)[C@H](C)NC1=O [N—Ac—CAHGVDC—NH2] (Ac-CAHGVDC-NH2; disulfide 1-7)', 'pIC50', '< 4.00'),
  ('CC(=O)N[C@H]1CSSC[C@@H](C(N)=O)NC(=O)[C@H](Cc2c[nH]cn2)NC(=O)CNC(=O)[C@H](C(C)C)NC1=O [N—Ac—CVGHC—NH2] (Ac-CVGHC-NH2; disulfide 1-5)', 'pIC50', '< 4.00'),
  ('CC(C)[C@@H]1NC(=O)CNC(=O)[C@H](Cc2c[nH]cn2)NC(=O)[C@H](C)NC(=O)[C@@H](N)CSSC[C@@H](C(N)=O)NC(=O)[C@H](CC(=O)O)NC1=O [H—CAHGVDC—NH2] (H-CAHGVDC-NH2; disulfide 1-7)', 'pIC50', '< 4.00');
